molecular target: Dipeptidyl peptidase 4 (Homo sapiens); assay: Inhibition of h-DPPIV
Sequence (P27487 whole entry): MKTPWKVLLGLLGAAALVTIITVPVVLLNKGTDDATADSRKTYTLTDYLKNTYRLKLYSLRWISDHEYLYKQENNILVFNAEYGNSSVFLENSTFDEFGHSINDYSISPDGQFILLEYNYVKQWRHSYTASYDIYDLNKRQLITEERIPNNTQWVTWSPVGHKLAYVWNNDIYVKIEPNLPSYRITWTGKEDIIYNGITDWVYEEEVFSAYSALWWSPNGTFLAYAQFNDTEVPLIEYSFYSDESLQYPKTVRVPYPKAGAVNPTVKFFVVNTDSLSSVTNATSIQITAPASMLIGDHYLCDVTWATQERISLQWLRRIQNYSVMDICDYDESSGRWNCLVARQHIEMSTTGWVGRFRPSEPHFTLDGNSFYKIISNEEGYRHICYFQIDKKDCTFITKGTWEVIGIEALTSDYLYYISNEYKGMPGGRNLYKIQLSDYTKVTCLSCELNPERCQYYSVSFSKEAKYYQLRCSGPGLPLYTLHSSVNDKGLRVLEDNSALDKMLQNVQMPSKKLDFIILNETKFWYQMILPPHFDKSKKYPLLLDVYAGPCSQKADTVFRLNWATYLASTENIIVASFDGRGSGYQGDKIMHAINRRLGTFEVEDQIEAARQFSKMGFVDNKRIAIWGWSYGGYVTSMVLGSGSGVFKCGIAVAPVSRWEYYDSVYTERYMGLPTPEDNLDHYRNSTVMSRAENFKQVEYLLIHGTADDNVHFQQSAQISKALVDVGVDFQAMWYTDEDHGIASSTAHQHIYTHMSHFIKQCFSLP
reported.endpoint: Ki (nM)
Expressed in nM, but write only the number.

Known Ki results, listed for orientation:
compound="Cn1ncc2nc(N3CCCC(N)C3)n(Cc3ccccc3C#N)c2c1=O (stereo not given)" reported_endpoint=Ki observed_result=5
compound="Cn1ncc2c(nc(N3CCCC(N)C3)n2Cc2ccccc2C#N)c1=O (stereo not given)" reported_endpoint=Ki observed_result=260
compound="Cn1ncc2nc(N3CCCC(N)C3)n(Cc3cccc(CC#N)c3)c2c1=O (stereo not given)" reported_endpoint=Ki observed_result=11
compound="Cn1c(=O)c2c(nc(N3CCCC(N)C3)n2Cc2ccccc2C#N)n(C)c1=O (stereo not given)" reported_endpoint=Ki observed_result=2

Let's switch to this compound now.
Prompt: Which Ki reading was recorded for the compound NC1CCCN(c2nc3c(n2Cc2ccccc2C(F)(F)F)C(=O)c2ccccc2C3=O)C1 (stereo not given) ?
Response: 25

Hello, the source for this data is ChEMBL document CHEMBL1137273, in case you need it.
